- Tested on: rat coronary artery complete ischemia model
- experiment-notes: Model of ischemia (MI) by rat coronary artery complete ligation (Tests 1 and 2): echocardiography, body weight
- assay-conditions: MI Test 1, NOAEL doses; 21 Day; mean ± S.D.
Where a name gives a salt, the structure may show the parent alone.

compound | Body weight (g)
CC#CCC(C)[C@H](O)/C=C/[C@@H]1[C@H]2c3cccc(CCCC(=O)O)c3O[C@H]2C[C@H]1O (mixture of isomers) [Compound F, Beraprost sodium] | 272.9
O=C(O)/C=C/c1ccc(Cn2ccnc2)cc1 [Compound C, Ozagrel hydrochloride hydrate] | 278.9
Cc1ccc(=O)n(-c2ccccc2)c1 [Compound E, Pirfenidone] | 272.4
O=C(O)COc1cccc2c1CCC=C2CCO/N=C(\c1ccccc1)c1cccnc1 [Compound A] | 277.1
